target-under-test: Fibroblast growth factor 10 (Homo sapiens)
assay-explanation: compounds binding fibroblast growth factor 10 – biochemical, small-molecule microarray, 635 nm fluorescence, primary screen (AID 1102)
measurement-conditions: FGF10 binding, fluorescence 635 nm, higher = more signal
Task for the reader: assign each of the following molecules its reported composite z-score.
Lab note: jot down the number only; don't add units.

Any idea what its composite z-score is? The molecule is COc1ccc(C(=O)Nc2cccc(CN3C(=O)[C@]4(O[C@H](CCn5cc(CCO)nn5)[C@@H]([Si](C)(C)c5ccc(OC)cc5)[C@@H]4C)c4ccccc43)c2)cc1
0.17

Now try COC(=O)[C@@]1(Cc2ccccc2)[C@H]2c3cc(C(=O)N(C)C)n(Cc4ccc(OC)c(OC)c4)c3C[C@H]2CN1C(=O)c1ccccc1 .
1.44

Next entry: O=C(O)[C@H](Cc1ccccc1)n1cc(-c2ccccc2)nn1
0.467

One more molecule: [N-]=[N+]=Nc1ccccc1[C@H]1OC(c2ccc(OCCCO)cc2)=N[C@@]1(Cc1ccccc1)C(=O)N1CCOCC1
1.31

Hello, the source for this data is PubChem BioAssay, in case you need it.
